Measurement Target: AHR (Homo sapiens)
Run Description: In vitro assay 1: antagonism in human cell line (transactivation assay, kynurenic acid prestimulated)
Test Context: Assay 1: AHR-luc Hum Antagonism IC50 [M], 150 μM kynurenic acid, 20 hours, firefly luciferase
Measurement Type: IC50 (M)

molecule="COCC(O)CNC(=O)c1cc(-c2ccc(Cl)cc2)nn(-c2cccc(F)c2)c1=O (stereo not drawn) [Example 31]" measured_result=1.61e-07
molecule="COC[C@@H](CO)NC(=O)c1cc(-c2ccc(C(F)(F)F)cc2)nn(-c2cccc(F)c2)c1=O [Example 258]" measured_result=3.01e-08

a. CC(CO)CNC(=O)c1cc(-c2ccc(Cl)cc2)nn(-c2cccc(F)c2)c1=O (single isomer, unassigned; (+)) [Example 201]
b. CC(C)(CNC(=O)c1cc(-c2ccc(Cl)cc2)nn(-c2cccc(F)c2)c1=O)C(=O)O [Example 399]
c. CC(C)C(O)CNC(=O)c1cc(-c2ccc(Cl)cc2)nn(-c2cccc(Cl)c2)c1=O (single isomer, unassigned) [Example 68]
d. CC(C)[C@@H](CO)NC(=O)c1cc(-c2ccc(Cl)cc2)nn(-c2cccc(C#N)c2)c1=O [Example 361]
e. CC(C)[C@@H](CO)NC(=O)c1cc(-c2ccc(Cl)cc2)nn(-c2cccc(Cl)c2)c1=O [Example 59]
Given 5 molecules, produce a descending ranking by IC50. Show the ranking through the labels, in the order asked for.
b, c, d, a, e

I. CC[C@@H](CO)NC(=O)c1cc(-c2ccc(Cl)c(Cl)c2)nn(-c2cccc(F)c2)c1=O [Example 306]
II. O=C(NCC(O)C(F)(F)F)c1cc(-c2ccc(Cl)c(F)c2)nn(-c2cc(F)cc(F)c2)c1=O (single isomer, unassigned) [Example 404]
Pick one: I or II . Which one has the lower reported IC50? Answer = label.
I
(I: 1.06e-07 M, II: 2.7e-07 M)

P. Cc1ccc(-c2cc(C(=O)NCC(O)C(C)C)c(=O)n(-c3cccc(F)c3)n2)cc1 (single isomer, unassigned; enantiomer 2) [Example 12]
Q. CC[C@@H](CO)NC(=O)c1cc(-c2ccc(C)c(C)c2)nn(-c2cccc(F)c2)c1=O [Example 86]
R. CC(CO)NC(=O)c1cc(-c2ccc(Cl)cc2)nn(-c2ccccc2)c1=O (stereo not drawn) [Example 79]
Order the 3 molecules from highest to lowest IC50. // rank by listing labels in the order requested
R, P, Q
(R: 2.82e-07 M, P: 1.22e-07 M, Q: 4.55e-08 M)

###

Measurement Target: AHR (Homo sapiens)
Sequence (P35869 11-848): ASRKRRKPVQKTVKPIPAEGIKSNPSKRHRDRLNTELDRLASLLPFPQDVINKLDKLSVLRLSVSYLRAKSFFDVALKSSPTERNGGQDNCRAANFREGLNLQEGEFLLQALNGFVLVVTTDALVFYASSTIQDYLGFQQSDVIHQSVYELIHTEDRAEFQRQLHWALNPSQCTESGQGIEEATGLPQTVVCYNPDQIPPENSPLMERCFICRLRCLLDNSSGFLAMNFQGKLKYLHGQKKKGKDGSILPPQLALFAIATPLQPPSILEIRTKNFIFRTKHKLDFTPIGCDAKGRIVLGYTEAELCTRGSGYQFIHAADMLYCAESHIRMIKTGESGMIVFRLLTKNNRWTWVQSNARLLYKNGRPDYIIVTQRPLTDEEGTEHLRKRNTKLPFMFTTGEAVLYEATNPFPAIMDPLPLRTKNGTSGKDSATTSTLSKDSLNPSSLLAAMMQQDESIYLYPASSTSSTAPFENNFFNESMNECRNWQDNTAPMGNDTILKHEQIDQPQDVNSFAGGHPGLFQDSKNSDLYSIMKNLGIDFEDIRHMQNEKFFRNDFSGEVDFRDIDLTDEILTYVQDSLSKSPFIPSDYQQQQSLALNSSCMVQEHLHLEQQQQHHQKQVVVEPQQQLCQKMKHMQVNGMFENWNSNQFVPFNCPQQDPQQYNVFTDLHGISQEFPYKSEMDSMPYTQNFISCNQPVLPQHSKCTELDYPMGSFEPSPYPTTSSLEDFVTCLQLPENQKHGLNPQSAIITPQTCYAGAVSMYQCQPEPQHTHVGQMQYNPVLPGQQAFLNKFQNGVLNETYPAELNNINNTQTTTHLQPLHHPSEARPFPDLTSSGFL
Run Description: In vitro assay 1: antagonism in human cell line (transactivation assay, kynurenic acid prestimulated)
Test Context: Assay 1: AHR-luc Hum Antagonism IC50 [M], 150 μM kynurenic acid, 20 hours, firefly luciferase
Measurement Type: IC50 (M)

molecule="O=C(N[C@H]1COC[C@H]1O)c1cc(-c2ccc(Cl)cc2)nn(-c2cccc(F)c2)c1=O [Example 166]" measurement_target="AHR (Homo sapiens)" measured_result=4.05e-08

P. O=C(NC(CO)C1CCCO1)c1cc(-c2ccc(Cl)cc2)nn(-c2cccc(F)c2)c1=O (single isomer, unassigned) [Example 319]
Q. C[C@H](CO)NC(=O)c1cc(-c2ccc(Cl)cc2)nn(-c2ccccc2)c1=O
I'd appreciate it if you could identify which of P and Q has the greater IC50. Selection: enter the item's label.
Q
(Q: 1.12e-06 M, P: 5.02e-08 M)
